- tested on: UniProt O00206
- protocol notes: Inhibition of LPS-induced TLR4 activation in human whole blood assessed as inhibition of IL-6 release preincubated for 5 to 10 mins
property: IC50 (µM)
Entry rule: numbers only, all in µM.

Give recorded IC50 with UniProt O00206 for the following compound: CCOc1ccc(OCC(O)CN(C)Cc2c(C)nn(Cc3ccccc3Cl)c2C)cc1 (racemic)
318

----------
- tested on: Toll-like receptor 4 (Homo sapiens, UniProt O00206)
- Sequence (O00206 whole entry): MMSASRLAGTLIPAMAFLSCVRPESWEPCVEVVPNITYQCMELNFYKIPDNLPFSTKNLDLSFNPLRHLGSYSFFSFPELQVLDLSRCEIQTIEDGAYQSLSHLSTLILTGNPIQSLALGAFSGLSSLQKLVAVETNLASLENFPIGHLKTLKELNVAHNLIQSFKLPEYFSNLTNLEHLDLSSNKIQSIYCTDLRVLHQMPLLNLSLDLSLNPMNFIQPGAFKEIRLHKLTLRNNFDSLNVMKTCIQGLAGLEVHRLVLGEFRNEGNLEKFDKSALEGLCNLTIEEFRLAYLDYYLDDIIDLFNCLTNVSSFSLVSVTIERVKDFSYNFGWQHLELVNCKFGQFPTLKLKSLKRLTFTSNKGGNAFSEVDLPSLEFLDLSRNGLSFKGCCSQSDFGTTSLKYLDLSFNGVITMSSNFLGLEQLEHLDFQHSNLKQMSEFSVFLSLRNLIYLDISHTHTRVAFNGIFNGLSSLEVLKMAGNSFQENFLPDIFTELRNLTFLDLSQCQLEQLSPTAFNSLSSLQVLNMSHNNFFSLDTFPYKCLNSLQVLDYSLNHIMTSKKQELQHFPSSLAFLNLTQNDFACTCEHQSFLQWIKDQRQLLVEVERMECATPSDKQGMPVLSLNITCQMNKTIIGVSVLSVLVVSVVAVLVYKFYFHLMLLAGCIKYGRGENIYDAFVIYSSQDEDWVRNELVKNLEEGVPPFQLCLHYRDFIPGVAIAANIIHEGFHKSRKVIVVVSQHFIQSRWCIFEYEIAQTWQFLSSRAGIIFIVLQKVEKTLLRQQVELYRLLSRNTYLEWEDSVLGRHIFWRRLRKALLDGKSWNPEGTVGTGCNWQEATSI
- protocol notes: Inhibition of LPS-induced TLR4 activation in human whole blood assessed as inhibition of IL-8 release preincubated for 5 to 10 mins
property: IC50
Output should be the measured figure followed by the unit it is expressed in.

Any idea what IC50 was measured for CCOc1ccc(OCC(O)CN(C)Cc2c(C)nn(Cc3ccccc3Cl)c2C)cc1 (racemic) ?
111 µM

Sourced from ChEMBL document CHEMBL1821673
